Tested on: CP237
Experiment: qHTS profiling for inhibitors of Plasmodium falciparum proliferation (AID 504749); note: nearly all actives have a fitted effect of over 60% in size; note: potency is the fitted concentration of half-maximal effect
Conditions: P. falciparum in erythrocytes, SYBR Green DNA, 72 h; series mostly up to 28.7 µM
Records with an inconclusive call do not appear. Calls of active or inactive are those of the source. Calls come from the whole dose curve; as a rule, active = well fitted inhibition curve with a large enough effect; inconclusive = small, poorly fitted or top-dose-only effect; inactive = flat fitted curve, though single readings scatter.
assay readout: Potency

Reference set, count: 5
molecule	data value
Nc1ccc(N)cc1	inactive
c1cc2c(c(N3CCNCC3)c1)OCCO2	inactive
Clc1ccc(CO/N=C(\Cn2ccnc2)c2ccc(Cl)cc2Cl)c(Cl)c1	3.98 µM (active)
N#Cc1nn(-c2c(Cl)cc(C(F)(F)F)cc2Cl)c(N)c1S(=O)C(F)(F)F (configuration not stated)	5.01 µM (active)
C[N+]1(CCC(C(N)=O)(c2ccccc2)c2ccccc2)CCCCC1	inactive

Asked: Give the reported value of Potency for this record: "O=C1NCN(c2ccccc2)C12CCN(CCCOc1ccc(F)cc1)CC2"
Given back: 5.01 µM (active)

Asked: For "c1ccc2nc(N3CCNCC3)ccc2c1" , write its Potency.
Given back: inactive

Asked: Give me measured Potency, please, for this molecule: "COP(=O)(OC)OC=C(Cl)Cl"
Given back: inactive

Asked: Input "C#C[C@]1(O)CC[C@H]2[C@@H]3CCC4=CC(=O)CCC4=C3C=C[C@@]21CC" , output reported Potency.
Given back: 0.178 µM (active)

Asked: Note down Potency recorded for "CC[C@]1(O)CC[C@H]2[C@@H]3CCC4=CCCC[C@@H]4[C@H]3CC[C@@]21C"
Given back: inactive

Asked: For the molecule COCC(=O)N(c1c(C)cccc1C)C(C)C(=O)OC (configuration not stated) , give its measured Potency value.
Given back: inactive

Asked: Supply measured Potency of "Oc1c(Br)cc(Br)cc1Br" in your reply.
Given back: inactive

Every entry's value here was drawn from PubChem BioAssay (NCATS).
